Reference source: patent US20200017592A1

Target: T1, human IL-36R extracellular domain expressed with a C-terminal myc-myc-hexahistidine tag (hIL-36R-MMH) (human, UniProt Q9HB29 20-337)
T1 construct: also called Human IL-36R-MMH; REGN2105
T1 sequence (Q9HB29 other isoform, or with tags, fused parts or gaps limits assumed): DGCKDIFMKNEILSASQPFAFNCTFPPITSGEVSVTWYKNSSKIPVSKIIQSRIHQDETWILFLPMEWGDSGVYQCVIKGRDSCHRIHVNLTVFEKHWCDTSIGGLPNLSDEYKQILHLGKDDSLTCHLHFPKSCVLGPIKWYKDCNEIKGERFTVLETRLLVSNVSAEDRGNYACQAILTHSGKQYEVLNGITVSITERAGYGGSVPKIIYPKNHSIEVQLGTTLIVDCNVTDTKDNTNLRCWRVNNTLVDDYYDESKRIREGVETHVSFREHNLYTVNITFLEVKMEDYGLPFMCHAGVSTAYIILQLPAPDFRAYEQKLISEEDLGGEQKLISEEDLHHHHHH
Assay: SPR Biacore T200, mAb captured on anti-hFc, 37C, PBS-T pH 6.0 running buffer
Protocol: Additional binding experiments were performed to determine the effect of pH on the rate of dissociation of IL-36R bound to purified anti-IL-36R antibodies, which was determined using a real-time surface plasmon resonance biosensor using a Biacore T200 instrument. […] Kinetic dissociation constant (kd) were determined by fitting the real-time sensorgrams to a 1:1 binding model using Scrubber 2.0c curve fitting software. Binding dissociative half-lives (t_{1/2}) were calculated from kd as: […]
Listing of recorded t1/2 by entry.

Binder	t1/2
H4H14709P (antibody, human IgG4 S228P, kappa, V domains shown, Fully human anti-IL-36R antibody) VH: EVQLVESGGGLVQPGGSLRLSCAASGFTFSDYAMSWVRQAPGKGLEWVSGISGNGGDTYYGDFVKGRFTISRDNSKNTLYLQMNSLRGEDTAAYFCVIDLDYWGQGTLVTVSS VL: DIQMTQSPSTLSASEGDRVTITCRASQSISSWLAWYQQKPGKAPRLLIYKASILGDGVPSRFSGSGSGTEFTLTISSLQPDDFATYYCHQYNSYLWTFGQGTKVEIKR	7 min
H4H14700P2 (antibody, human IgG4 S228P, kappa, V domains shown, Fully human anti-IL-36R antibody) VH: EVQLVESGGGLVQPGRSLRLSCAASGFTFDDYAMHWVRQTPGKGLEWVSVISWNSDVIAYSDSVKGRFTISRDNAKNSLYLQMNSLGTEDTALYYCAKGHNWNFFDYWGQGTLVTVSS VL: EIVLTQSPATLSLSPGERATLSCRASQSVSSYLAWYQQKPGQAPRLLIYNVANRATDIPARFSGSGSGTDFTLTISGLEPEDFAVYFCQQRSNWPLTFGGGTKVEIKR	3 min
H4H14728P (antibody, human IgG4 S228P, kappa, V domains shown, Fully human anti-IL-36R antibody) VH: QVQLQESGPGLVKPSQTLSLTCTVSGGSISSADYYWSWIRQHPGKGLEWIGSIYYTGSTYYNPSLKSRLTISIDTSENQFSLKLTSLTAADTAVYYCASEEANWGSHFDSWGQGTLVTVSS VL: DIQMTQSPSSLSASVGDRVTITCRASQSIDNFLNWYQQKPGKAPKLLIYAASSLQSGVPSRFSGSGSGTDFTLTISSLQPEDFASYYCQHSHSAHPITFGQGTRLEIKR	4 min
H4H14699P2 (antibody, human IgG4 S228P, kappa, V domains shown, Fully human anti-IL-36R antibody) VH: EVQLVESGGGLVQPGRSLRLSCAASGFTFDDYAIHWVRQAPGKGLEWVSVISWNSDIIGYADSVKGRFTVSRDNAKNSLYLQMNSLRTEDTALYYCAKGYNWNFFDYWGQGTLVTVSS VL: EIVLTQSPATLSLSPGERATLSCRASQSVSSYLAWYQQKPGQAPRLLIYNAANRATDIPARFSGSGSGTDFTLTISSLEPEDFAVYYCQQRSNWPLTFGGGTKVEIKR	2 min
H4H14757P (antibody, human IgG4 S228P, kappa, V domains shown, Fully human anti-IL-36R antibody) VH: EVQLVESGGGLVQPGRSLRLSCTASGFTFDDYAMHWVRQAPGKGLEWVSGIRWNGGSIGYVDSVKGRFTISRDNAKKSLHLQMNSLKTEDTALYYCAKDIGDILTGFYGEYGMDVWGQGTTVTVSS VL: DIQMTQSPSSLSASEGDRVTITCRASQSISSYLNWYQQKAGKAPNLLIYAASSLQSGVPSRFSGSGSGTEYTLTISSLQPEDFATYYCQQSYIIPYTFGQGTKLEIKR	4 min
